Method description: Cytotoxicity assay (trypan blue exclusion, propidium iodide)
Format: cell-based, human
Run conditions: human, MT-4 cells; MT4 cells, Table 6, unit inferred; read-out: CC50
CC50 by entry:
Measured endpoint: CC50 (µg/mL)

- Smiles data: "C=C1CN(S(=O)(=O)c2ccc(C)cc2)CCCN(Cc2ccccc2)CCCN(S(=O)(=O)c2cccc3c(N(C)C)cccc23)C1"
  Measured endpoint: "CC50"
  Qualifier symbol: ">"
  Meas value: 100
- Smiles data: "C=C1CN(S(=O)(=O)c2ccc(C)cc2)CCCN(CC2CCCCC2)CCCN(S(=O)(=O)c2cccc3c(N(C)C)cccc23)C1"
  Measured endpoint: "CC50"
  Qualifier symbol: "="
  Meas value: 61.2

Source of measurements: patent US20040220164A1
